# System Under Test: GBA2 (Homo sapiens (Human), UniProt Q9HCG7)
# Sequence (Q9HCG7 whole entry): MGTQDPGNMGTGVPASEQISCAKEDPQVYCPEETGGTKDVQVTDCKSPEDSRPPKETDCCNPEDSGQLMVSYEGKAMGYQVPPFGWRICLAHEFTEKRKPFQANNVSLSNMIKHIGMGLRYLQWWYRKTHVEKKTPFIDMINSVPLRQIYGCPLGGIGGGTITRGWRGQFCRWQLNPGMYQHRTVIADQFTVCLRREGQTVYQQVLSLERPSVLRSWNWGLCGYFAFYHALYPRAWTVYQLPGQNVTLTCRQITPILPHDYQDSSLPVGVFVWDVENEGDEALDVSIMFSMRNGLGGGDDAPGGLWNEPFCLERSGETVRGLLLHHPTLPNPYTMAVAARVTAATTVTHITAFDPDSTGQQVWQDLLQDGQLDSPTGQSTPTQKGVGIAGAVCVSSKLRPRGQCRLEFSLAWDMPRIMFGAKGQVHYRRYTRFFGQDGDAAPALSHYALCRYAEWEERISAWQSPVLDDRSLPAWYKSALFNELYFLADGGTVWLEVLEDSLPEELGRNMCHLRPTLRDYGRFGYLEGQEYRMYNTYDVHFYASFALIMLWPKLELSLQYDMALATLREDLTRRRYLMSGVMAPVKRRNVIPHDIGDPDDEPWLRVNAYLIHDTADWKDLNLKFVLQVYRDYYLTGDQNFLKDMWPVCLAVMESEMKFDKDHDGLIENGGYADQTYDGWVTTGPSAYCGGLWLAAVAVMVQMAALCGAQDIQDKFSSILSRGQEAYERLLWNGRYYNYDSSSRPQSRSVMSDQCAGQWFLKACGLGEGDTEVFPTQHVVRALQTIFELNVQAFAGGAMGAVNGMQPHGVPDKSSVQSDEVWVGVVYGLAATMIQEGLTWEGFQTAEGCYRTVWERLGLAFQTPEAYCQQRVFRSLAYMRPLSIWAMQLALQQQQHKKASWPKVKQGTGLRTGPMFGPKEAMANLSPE
# Protocol: Inhibition of GBA2 in cell lysate (4-methylumbelliferone glucopyranoside substrate);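 note: homogenate of stably transfected HEK293T cells pre-treated with a GCase inhibitor, test compound preincubated 5 min at 37 °C, substrate reaction 20 min at 37 °C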
# Type: biochemical
# Cond: HEK293T-overexpressing GBA2 cellular homogenate, pH 5.5; read-out: GBA2 IC50
pIC50: −log10 of the molar value.
Listing: pIC50 of selected molecules

Sample answers from the record:
>>> result("O[C@H]1[C@H](O)CN(C[C@H]2CCCN(c3ccc(C(F)(F)F)cn3)C2)C[C@@H]1O")
"> 7.00"
>>> result("O[C@H]1[C@H](O)CN(C[C@H]2CCCN(c3cccnc3C(F)(F)F)C2)C[C@@H]1O")
"> 7.00"
>>> result("O[C@H]1[C@H](O)CN(Cc2ccc(N3CCCCC3)cc2)C[C@@H]1O")
"6.00 to 7.00"
>>> result("O[C@H]1[C@H](O)CN(C[C@H]2CCCN(c3nc(C(F)(F)F)cs3)C2)C[C@@H]1O")
"> 7.00"

Quick one: give measured pIC50 for `O[C@H]1[C@H](O)CN(Cc2ccc(N3CCCC3)cc2)C[C@@H]1O`
6.00 to 7.00

Quick one: give measured pIC50 for `O[C@H]1[C@H](O)CN(C[C@H]2CCCN(c3ccncc3C(F)(F)F)C2)C[C@@H]1O`
> 7.00
